target-or-test-system: human GCG receptor (human, UniProt P47871 26-477)
Sequence (P47871 26-477): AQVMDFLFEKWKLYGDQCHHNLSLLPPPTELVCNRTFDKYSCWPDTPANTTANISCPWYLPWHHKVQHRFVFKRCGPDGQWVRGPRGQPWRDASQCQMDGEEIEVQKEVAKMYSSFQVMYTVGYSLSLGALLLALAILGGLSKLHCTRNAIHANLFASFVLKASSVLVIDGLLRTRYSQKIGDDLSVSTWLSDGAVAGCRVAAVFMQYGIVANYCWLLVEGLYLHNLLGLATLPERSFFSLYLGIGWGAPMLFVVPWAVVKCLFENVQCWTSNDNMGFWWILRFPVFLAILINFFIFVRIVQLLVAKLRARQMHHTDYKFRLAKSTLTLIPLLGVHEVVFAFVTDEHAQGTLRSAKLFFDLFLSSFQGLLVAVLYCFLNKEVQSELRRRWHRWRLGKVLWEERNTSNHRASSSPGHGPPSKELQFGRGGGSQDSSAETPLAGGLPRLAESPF
protocol-notes: cell-based or functional assay
Bridges are numbered along the chain shown (N, C = ends). Where no end group is shown, it is not given here. [ ]: non-standard residue; d: D form. The star is where a group is joined. Acetyl(2-(4-imidazolyl)) = O=C(Cc1c[nH]cn1)*; Aib = CC(C)(N)C(=O)O
For each record, check the reported in vitro Activity Compared to Native Peptide (%), vs Glucagon: if it is below 0.7% write TRUE, else write FALSE.

For this binder, is in vitro Activity Compared to Native Peptide (%), vs Glucagon lower than 0.7%? Y[Aib]QGTFTSDYSKYLDEKRAKDFVQWLLDHHPSSGQPPPSC (bridge 16-20; not fully specified (C-terminus)) [triple agonist of SEQ ID NO: 76]
FALSE

Decide: in vitro Activity Compared to Native Peptide (%), vs Glucagon of Y[Aib]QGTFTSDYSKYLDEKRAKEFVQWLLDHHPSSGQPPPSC-NH2 (bridge 16-20) [triple agonist of SEQ ID NO: 42] strictly below 0.7%?
FALSE

Consider [Acetyl(2-(4-imidazolyl))][Aib]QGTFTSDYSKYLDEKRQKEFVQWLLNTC (bridge 16-20; not fully specified (C-terminus)) [triple agonist of SEQ ID NO: 81] . Does its in vitro Activity Compared to Native Peptide (%), vs Glucagon lie strictly below 0.7%?
TRUE

Lab note: confirm whether the reported in vitro Activity Compared to Native Peptide (%), vs Glucagon for this binder is below 0.7%, equality not counting. binder: Y[Aib]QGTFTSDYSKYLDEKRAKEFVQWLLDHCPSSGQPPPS-NH2 (bridge 16-20) [triple agonist of SEQ ID NO: 96]
FALSE
